procedure.summary: Toxicity in ip dosed mouse
Type: organism-based
test.context: in vivo
parameter: LD50 (mg/kg)
Answers are plain numbers, in mg/kg.

See these solved cases before continuing.
>  <molecule>
CN1CC[N+]2(CC1)CCN(P1(=O)NCCCO1)CC2.[Cl-] (stereo not drawn)

>  <measure.unit>
mg/kg

>  <LD50>
1200

$$$$
>  <molecule>
O=P1(N(CCCl)CCCl)NCCCO1 (stereo not drawn) [CYCLOPHOSPHAMIDE ANHYDROUS]

>  <measure.unit>
mg/kg

>  <LD50>
387

$$$$

Problem: What measured LD50 goes with O=P1(N2CC[N+]3(CCCCCC3)CC2)NCCCO1.[Cl-] (stereo not drawn) ?
Solution: 239
